z-score: recorded values
- EXPERIMENT: modulators of S6 phosphorylation in cells, primary screen, cell-based, A549, cytoblot, luminescence, serum-stimulated (AID 1158);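 further: serum-stimulated A549 lung adenocarcinoma cells; signal is phosphorylated S6 detected by cytoblot immunostaining with HRP secondary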
- CONDITIONS: A549 phospho-S6 cytoblot, 5 h, higher = more signal
The reply should be a number, written without any unit.

* COC(=O)CC=C[C@H](C)[C@@H](OCc1cccc(Br)c1)[C@@H](C)[C@H](OC)C1CCCCC1 | 0.433
* COc1ccc(O[C@H]2C=C[C@@H](c3ccccc3)O[C@@H]2COC(=O)CCC(C)=NOC[C@@H](O)[C@H]2O[C@@H]3OC(C)(C)O[C@@H]3[C@H]2O)cc1 | 0.332
* C#CCCCON=C1C[C@@H](O)[C@@H](O)[C@@H]2[C@@H]3C(=O)N(C(C)(C)C)C(=O)[C@@H]3CC[C@H]12 | -0.162
* C#CCCCON=C1[C@H]2CCn3c(=O)n(C)c(=O)n3[C@H]2[C@H](O)[C@@H]2O[C@H]12 | -0.0228
* CO[C@H]1COC(=O)[C@H](C)NC(=O)[C@@H](C)COC(=O)[C@H]2CCCN2C(=O)CC=C[C@H]1C | 0.203
* COC(=O)[C@H]1[C@@H](O)[C@@]2(O)c3ccccc3O[C@@]2(c2ccccc2)[C@@H]1c1ccccc1 | 0.0192

Exercise: Tell me z-score reported for COc1ccc(COC(=O)NN=C2C[C@@H](O)[C@@H](O)[C@@H]3[C@@H]4C(=O)N(C5CCCCC5)C(=O)[C@@H]4CC[C@H]23)cc1
Solution: 0.173

Exercise: Tell me z-score reported for CC(C)(C)N1C(=O)[C@H]2[C@H]3[C@H](O)[C@H](O)CC(=O)[C@@H]3CC[C@H]2C1=O
Solution: 0.413

###

- TARGET_UNDER_TEST: Follistatin-related protein 3 (Homo sapiens) (UniProt O95633)
- Sequence (O95633 whole entry, looked up): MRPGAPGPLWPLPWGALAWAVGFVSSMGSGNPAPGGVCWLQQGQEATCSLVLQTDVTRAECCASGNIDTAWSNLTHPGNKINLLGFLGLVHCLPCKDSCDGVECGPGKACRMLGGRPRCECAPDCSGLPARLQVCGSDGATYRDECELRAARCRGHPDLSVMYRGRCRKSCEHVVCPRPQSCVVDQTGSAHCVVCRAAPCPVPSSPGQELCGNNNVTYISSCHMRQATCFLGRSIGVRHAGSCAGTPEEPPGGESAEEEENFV
- EXPERIMENT: FSTL3 binders on small-molecule microarrays, primary screen, biochemical, small-molecule microarray, 635 nm fluorescence (AID 1105);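 further: score merges emission near 667 nm and signal to noise per printed spot across three slides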
- CONDITIONS: FSTL3 binding, higher = more signal
ENDPOINT_LABEL: composite z-score
The reply should be a number, written without any unit.

Below: 4 compounds and their reported composite z-score.
* CCC1=NOC(CCC2CC(OC(=O)NCc3cccc4c3OCO4)CC3(CCCC(COC(=O)NCCc4ccccc4OC)O3)O2)C1 (stereo not drawn) | 0.192
* Cc1ccc(S(=O)(=O)NC(CCc2ccccc2)CC(=O)C(C)(C)C)cc1 (stereo not drawn) | 0.758
* CCC=CCCC(OC(=O)c1ccc(Br)cc1)C1=CCCCC1=O (stereo not drawn) | 1.05
* CCN1C(=O)[C@H]2[C@H]3[C@H](O)[C@H](O)CC(=NNC(=O)OCc4ccc(OC)cc4)[C@@H]3CC[C@H]2C1=O | 0.0539

Exercise: Tell me composite z-score reported for CC(C)CON=C1C[C@@H](O)[C@@H](O)[C@@H]2[C@@H]3C(=O)N(c4ccc(F)cc4F)C(=O)[C@@H]3CC[C@H]12
Solution: 0.986

Exercise: Tell me composite z-score reported for CO[C@@H]1COC(=O)CC=C[C@H](C)[C@H](OC)COC(=O)[C@H](C)NC(=O)CC=C[C@H]1C
Solution: 1.44

Exercise: Tell me composite z-score reported for CCOC(=O)[C@H](Cc1ccccc1)NC(=O)CCC1CC(OC(=O)NCCc2ccc(F)cc2)CC2(CCCC(COC(=O)NCC3CCCCC3)O2)O1 (stereo partly drawn)
Solution: 1.2

Exercise: Tell me composite z-score reported for CCc1cc2c(nc1CC)CCN(CCC(C)=NO[C@H](C)c1cn([C@@H]3COC[C@H]3O)nn1)C2
Solution: 0.433

Exercise: Tell me composite z-score reported for Cc1ccc(S(=O)(=O)n2c3ccccc3c3nnc(C(=O)c4ccccc4)nc32)cc1
Solution: 0.511

Exercise: Tell me composite z-score reported for CCOC(=O)[C@H](CC(C)C)NC(=O)CCC1CC(OC(=O)NCc2ccc3c(c2)OCO3)CC2(CCCC(COC(=O)NCC(c3ccccc3)c3ccccc3)O2)O1 (stereo partly drawn)
Solution: 0.503

Exercise: Tell me composite z-score reported for CCc1cc2c(nc1CC)CCN(CCC(C)=NO[C@H](C)c1cn([C@H](CO)Cc3ccccc3)nn1)C2
Solution: 0.11

Exercise: Tell me composite z-score reported for CCCNC(=O)OC[C@H]1O[C@H](CCON=C(C)CCN2CCc3nc(CC)c(CC)cc3C2)C=C[C@@H]1Oc1ccc(OC)cc1
Solution: 0.125

Exercise: Tell me composite z-score reported for O=C1C[C@@H](O)[C@@H](O)[C@@H]2[C@@H]3C(=O)N(c4cccc(Oc5ccccc5)c4)C(=O)[C@@H]3CC[C@H]12
Solution: 0.814

###

z-score: recorded values
- EXPERIMENT: splicing luciferase reporter signal modulators, primary screen, spliceosome inhibition project, cell-based, HEK293, splice +/- reporter (AID 1101);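 further: HEK293 cells carrying a splicing-competent luciferase reporter gene; test concentration not given here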
- CONDITIONS: luminescence, 24 h, higher = more signal, called active from +8 up or from −8 down
The reply should be a number, written without any unit.

Exercise: Tell me z-score reported for CCOC(=O)[C@H](Cc1ccccc1)NC(=O)CCC1CC(OC(=O)NCc2cccc3ccccc23)CC2(CCCC(COC(=O)NCc3ccccc3)O2)O1 (some centres not stated)
Solution: -2.41

Exercise: Tell me z-score reported for CCCCC#C[C@@H]1C=C[C@H](Oc2ccc(C(=O)OC)cc2)[C@@H](COC(=O)OCC)O1
Solution: 0.545

Exercise: Tell me z-score reported for COc1cccc([C@H]2Oc3ccc(OC)cc3C(=NOC[C@@H](O)[C@H]3O[C@@H]4OC(C)(C)O[C@@H]4[C@H]3O)[C@@H]2O)c1
Solution: -0.106

Exercise: Tell me z-score reported for C#CCCCON=C1C[C@@H](O)[C@@H](O)[C@@H]2[C@@H]3C(=O)N(c4ccc(F)cc4F)C(=O)[C@@H]3CC[C@H]12
Solution: -1.35

Exercise: Tell me z-score reported for O=C1[C@H]2[C@H]3[C@H](O)[C@H](O)CC(=NOCc4ccccc4)[C@@H]3CC[C@H]2C(=O)N1c1ccc(F)cc1F
Solution: -1.29

Exercise: Tell me z-score reported for COCOc1ccc(Br)cc1C(=O)[C@@H]1O[C@H]1c1cccc(OC)c1
Solution: -0.455

Exercise: Tell me z-score reported for C=CC[C@@H]1C=C[C@H](ON=C[C@@H](C)[C@H](OCc2ccccc2)C(C)C)[C@@H](CO)O1
Solution: 0.305

Exercise: Tell me z-score reported for CC(C)CON=C1C[C@@H](O)[C@@H](O)[C@@H]2[C@@H]3C(=O)N(C(C)(C)C)C(=O)[C@@H]3CC[C@H]12
Solution: 0.886

###

- Tested on: Inhibin beta A chain (activin A)
- EXPERIMENT: INHBA (activin A) binders on microarrays, primary screen, biochemical, small-molecule microarray, 635 nm fluorescence scan (AID 1107);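 further: mouse activin A protein probed at 4.33 µg/mL on printed slides; score merges bound-protein fluorescence near 667 nm with spot signal-to-noise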
- CONDITIONS: small-molecule microarray binding, higher = more signal
composite z-score: recorded values

Below: 2 compounds and their reported composite z-score.
- C[C@@H]1CC[C@H]2C(=O)O[C@@H](COc3ccc(C(C)(C)C)cc3)CN2[C@@H]1c1ccc(Br)cc1: 0.011
- CCOC(=O)[C@H](Cc1ccccc1)NC(=O)CCC1CC(OC(=O)NCc2ccc3c(c2)OCO3)CC2(CCCC(COC(=O)NCCC(C)C)O2)O1 (stereo partly drawn): 0.367

The record that follows has no composite z-score shown yet.
Exercise: Tell me composite z-score reported for COC(=O)CC=C[C@@H](C)[C@@H](C=NO[C@@H]1O[C@H](COC(C)=O)[C@@H](OC(C)=O)[C@H](OC(C)=O)[C@H]1OC(C)=O)NS(=O)(=O)c1ccc(C)cc1
Solution: -1.58

###

- EXPERIMENT: osmotic lysis modulators in infected erythrocytes, primary screen, PSAC antagonist project, cell-based, P. falciparum Indochina, OD700, 3 h (AID 1156)
- CONDITIONS: higher = more signal, called active from +8 up or from −8 down
The source made the active and inactive calls.
z-score: recorded values

* Cc1cc2c(c(=O)o1)[C@@H](O)[C@H]1O[C@H]1C2=O | 0.634 (inactive)
* CO[C@@H]1COC(=O)[C@@H]2CCCN2C(=O)[C@@H](C)COC(=O)CC=C[C@H]1C | 0.601 (inactive)

Exercise: Tell me z-score reported for CO[C@H]1COC(=O)[C@@H]2CCCN2C(=O)CC=C[C@@H](C)[C@H](OC)COC(=O)[C@@H](OCc2ccccc2)C=C[C@@H]1C
Solution: -0.0897 (inactive)

Exercise: Tell me z-score reported for CCOC(=O)[C@H](Cc1ccccc1)NC(=O)CCC1CC(OC(=O)NCc2ccc3c(c2)OCO3)CC2(CCCC(COC(=O)NCCC(C)C)O2)O1 (stereo not given in full)
Solution: 1.26 (inactive)

Exercise: Tell me z-score reported for COC(=O)[C@H](C)NC(=O)CCC1CC(OC(=O)NCc2ccc3c(c2)OCO3)CC2(CCCC(COC(=O)NCC(c3ccccc3)c3ccccc3)O2)O1 (stereo not given in full)
Solution: 1.34 (inactive)

Exercise: Tell me z-score reported for C[C@H](ON=C1[C@H]2CCn3c(=O)n(-c4ccccc4)c(=O)n3[C@H]2[C@H](O)[C@@H]2O[C@H]12)c1cn([C@H](CO)Cc2ccccc2)nn1
Solution: -0.089 (inactive)

Exercise: Tell me z-score reported for CCc1cc2c(nc1CC)CCN(CCC(C)=NOC[C@H]1O[C@H](c3ccccc3)C=C[C@@H]1Oc1ccc(OC)cc1)C2
Solution: 2.37 (inactive)

Exercise: Tell me z-score reported for COC(=O)[C@H](C)NC(=O)CCC1CC(OC(=O)NCc2cccc3ccccc23)CC2(CCCC(COC(=O)NCC(c3ccccc3)c3ccccc3)O2)O1 (stereo not given in full)
Solution: -1.34 (inactive)

Reference source for all entries: PubChem BioAssay
